Source: paper PMC12271471

# System: T-Jurkat cells
# Test details: VPD450 proliferation test (flow cytometry) on T-Jurkat cells
# Assay type: cell-based, human
# Protocol conditions: ratio between VPD450 EC50 values for PBMCs and T-Jurkat cell line
Assay metric: IS internal selectivity (EC50 PBMCs / EC50 T-Jurkat)
Please state the value as a number alone, without comment.

# example entries with known answers
COc1c(C)c2c(c(O)c1C/C=C(\C)CCC(=O)OCCN1CCOCC1)C(=O)OC2 [MMF, mycophenolate mofetil, reference compound] :: 1.704
COc1cc(/C=C/C(C)=O)ccc1OC(=O)CC/C(C)=C/Cc1c(O)c2c(c(C)c1OC)COC2=O [MP5] :: 10.542
COc1c(C)c2c(c(O)c1C/C=C(\C)CCC(=O)O)C(=O)OC2 [MPA, Mycophenolic acid] :: 1.249
COC(=O)/C=C/c1ccc(OC(=O)CC/C(C)=C/Cc2c(O)c3c(c(C)c2OC)COC3=O)c(OC)c1 [MP7] :: 1.571
COc1cc(CCC(C)=O)ccc1OC(=O)CC/C(C)=C/Cc1c(O)c2c(c(C)c1OC)COC2=O [MP6] :: 1.755
COc1c(C)c2c(c(O)c1C/C=C(\C)CCC(=O)Oc1ccc(/C=C/C(C)=O)cc1)C(=O)OC2 [P6] :: 0.780

Query :: Tell me IS internal selectivity (EC50 PBMCs / EC50 T-Jurkat) reported for COc1cccc(OC)c1OC(=O)CC/C(C)=C/Cc1c(O)c2c(c(C)c1OC)COC2=O [MP2]
Result :: 2.042

Query :: Tell me IS internal selectivity (EC50 PBMCs / EC50 T-Jurkat) reported for COc1cc(C=O)ccc1OC(=O)CC/C(C)=C/Cc1c(O)c2c(c(C)c1OC)COC2=O [MP4]
Result :: 0.386

Query :: Tell me IS internal selectivity (EC50 PBMCs / EC50 T-Jurkat) reported for COc1c(C)c2c(c(O)c1C/C=C(\C)CCC(=O)Oc1ccc(C=O)cc1)C(=O)OC2 [P5]
Result :: 0.703

---

# System: T-Jurkat cells
# Test details: VPD450 proliferation test (flow cytometry) on T-Jurkat cells
# Type: cell-based, human
# Protocol conditions: Homo sapiens; T-Jurkat, 48 h, mean ± SD
Consider the cut-off 1000 nM. If the recorded EC50 is strictly smaller, the label is true (1); if not, the label is false (0).

COC(=O)/C=C/c1ccccc1OC(=O)CC/C(C)=C/Cc1c(O)c2c(c(C)c1OC)COC2=O [P4] :: false (0)
COc1cc(/C=C/C(C)=O)ccc1OC(=O)CC/C(C)=C/Cc1c(O)c2c(c(C)c1OC)COC2=O [MP5] :: false (0)
COc1cc(CCC(C)=O)ccc1OC(=O)CC/C(C)=C/Cc1c(O)c2c(c(C)c1OC)COC2=O [MP6] :: true (1)
COc1c(C)c2c(c(O)c1C/C=C(\C)CCC(=O)OCCN1CCOCC1)C(=O)OC2 [MMF, mycophenolate mofetil, reference compound] :: true (1)
COc1ccccc1OC(=O)CC/C(C)=C/Cc1c(O)c2c(c(C)c1OC)COC2=O [MP1] :: true (1)
COc1cc(C=O)cc(OC)c1OC(=O)CC/C(C)=C/Cc1c(O)c2c(c(C)c1OC)COC2=O [MP3] :: false (0)
C/C=C/c1ccc(OC(=O)CC/C(C)=C/Cc2c(O)c3c(c(C)c2OC)COC3=O)c(OC)c1 [MP9] :: false (0)

Let us examine a further case.
Query :: Confirm or reject: EC50 of COc1c(C)c2c(c(O)c1C/C=C(\C)CCC(=O)Oc1ccc(/C=C/C(C)=O)cc1)C(=O)OC2 [P6] lies strictly below 1000 nM
Result :: false (0)
